Format: in vivo, BALB/c mice
Assay Context: male, BALB/c, mouse, kidney, iv, 0.25 mg/kg
Measurement Name: half-life

molecule=CC(C)C[C@H](NC(=O)[C@H](Cc1ccccc1)NC(=O)c1cnccn1)B(O)O measurement_name=half-life experimental_result="59 h"
